test.parameters: in n-octanol, 283.15 K
outcome.measure: solubility (mole fraction)

input_smiles=CN(C)[C@@H]1C(=O)C(C(N)=O)=C(O)[C@@]2(O)C(=O)C3=C(O)c4c(O)cccc4C[C@H]3C[C@@H]12 outcome_measure="solubility (mole fraction)" result=3.56e-05

* * *

test.parameters: in ethanol, 283.15 K
outcome.measure: solubility (mole fraction)

input_smiles=CN(C)[C@@H]1C(=O)C(C(N)=O)=C(O)[C@@]2(O)C(=O)C3=C(O)c4c(O)cccc4C[C@H]3C[C@@H]12 outcome_measure="solubility (mole fraction)" readout_number=0.000144

* * *

test.parameters: in n-propanol, 303.15 K
outcome.measure: solubility (mole fraction)

input_smiles=CN(C)[C@@H]1C(=O)C(C(N)=O)=C(O)[C@@]2(O)C(=O)C3=C(O)c4c(O)cccc4C[C@H]3C[C@@H]12 outcome_measure="solubility (mole fraction)" readout_number=0.000136

* * *

test.parameters: in 1,4-dioxane, 308.15 K
outcome.measure: solubility (mole fraction)

input_smiles=CN(C)[C@@H]1C(=O)C(C(N)=O)=C(O)[C@@]2(O)C(=O)C3=C(O)c4c(O)cccc4C[C@H]3C[C@@H]12 result=0.00255
